Assay: Brain microdialysis, free brain and plasma concentration-time profiles
Assay type: in vivo
Conditions: male, Wistar, sc; rat, 30 µmol/kg s.c., at 30 min; read-out: Cu,br/Cu,pl in microdialysis
Procedure: Adult male Wistar rats (280–350 g; Harlan, Horst, The Netherlands) were used for the experiments. Rats were anesthetized using isoflurane 2% and O2. Before the surgery, Fynadine (1 mg/kg s.c.) was administered for analgesia during surgery and recovery. […] To test whether probe recoveries were sufficiently high to enable quantitative measurements of brain extracellular concentrations in the in vivo microdialysis experiments, each of the compounds was subjected to an in vitro recovery test. […]
experimental endpoint: Kp at 30 min

* CN1CCN(C2=Nc3cc(Cl)ccc3Nc3ccccc32)CC1 | 0.04

----------
Tested on: in vitro BBB model (co-culture of bovine brain capillary endothelial cells and rat glial cells)
Assay: In vitro BBB co-culture model, Cu,br/Cu,pl ratio
Conditions: steady-state ratio computed from 1 h data with the blue-norna steady-state calculator
Description: Figure 1 Schematic diagram of the experimental protocol. […] In vitro Cu,br/Cu,pl at 1 h were calculated by dividing the concentration in the abluminal compartment (∼Cu,br) by the concentration in the luminal compartment (∼Cu,pl) at 1 h. […] The amount of radiotracer in the abluminal compartment was measured in a liquid scintillation analyser (Packard Instrument Company, Meriden, USA). […] The concentrations of the test compound in all samples were analysed by MS/MS. […]
Entry class follows In vitro Cu,br/Cu,pl Mean steady-state: group 1 = under 0.4, group 2 = from 0.4 up to 0.7, group 3 = 0.7 and over

- CC(C)(C)NC(=O)[C@@H]1CN(Cc2cccnc2)CCN1C[C@@H](O)C[C@@H](Cc1ccccc1)C(=O)N[C@H]1c2ccccc2C[C@H]1O [Indinavir]: group 1
- NC(=O)N1c2ccccc2C=Cc2ccccc21 [Carbamazepine]: group 1
- NCC1(CC(=O)O)CCCCC1 [Gabapentin]: group 1
- CCN1CCCC1CNC(=O)c1cc(S(N)(=O)=O)ccc1OC (stereo not shown) [Sulpiride]: group 1
- Nc1nnc(-c2cccc(Cl)c2Cl)c(N)n1 [Lamotrigine]: group 2
- CCCC(C)(COC(N)=O)COC(=O)NC(C)C (stereo not shown) [Carisoprodol]: group 2
- CC(NC(C)(C)C)C(=O)c1cccc(Cl)c1 (stereo not shown) [Buproprion]: group 2
- Cc1ccc(-c2nc3ccc(C)cn3c2CC(=O)N(C)C)cc1 [Zolpidem]: group 2
- NCC(CC(=O)O)c1ccc(Cl)cc1 (stereo not shown) [Baclofen]: group 1
- CN(C)CCC=C1c2ccccc2CCc2ccccc21 [Amitriptyline]: group 2
- Fc1ccc([C@@H]2CCNC[C@H]2COc2ccc3c(c2)OCO3)cc1 [Paroxetin]: group 3
- O=C1NC(=O)C(c2ccccc2)(c2ccccc2)N1 [Phenytoin]: group 2
- Cn1c(=O)c2c(ncn2C)n(C)c1=O [Caffeine]: group 2
- CNCCC(Oc1ccc(C(F)(F)F)cc1)c1ccccc1 (stereo not shown) [Fluoxetine]: group 3
- CNS(=O)(=O)Cc1ccc2[nH]cc(CCN(C)C)c2c1 [Sumatriptan]: group 1
- CNCCC=C1c2ccccc2CCc2ccccc21 [Nortriptyline]: group 3
- OCCOCCN1CCN(C(c2ccccc2)c2ccc(Cl)cc2)CC1 (stereo not shown) [Hydroxyzine]: group 2

----------
system: in vitro BBB model (co-culture of bovine brain capillary endothelial cells and rat glial cells); test: In vitro BBB co-culture model, Cu,br/Cu,pl ratio; settings: steady-state ratio computed from 1 h data with the blue-norna steady-state calculator
experimental endpoint: In vitro Cu,br/Cu,pl Mean steady-state

* CN1CCN(CCCN2c3ccccc3Sc3ccc(C(F)(F)F)cc32)CC1 [Trifluoperazine] | 0.71
* CN(C)CCCN1c2ccccc2Sc2ccc(Cl)cc21 [Chlorpromazine] | 0.69
* O=C(CCCN1CCC(O)(c2ccc(Cl)cc2)CC1)c1ccc(F)cc1 [Haloperidol] | 0.70
* CSc1ccc2c(c1)N(CCC1CCCCN1C)c1ccccc1S2 (centres unmarked) [Thioridazine] | 0.68
* CN1CCN(C2=Nc3cc(Cl)ccc3Nc3ccccc32)CC1 [Clozapine] | 0.71
